molecular target: NS3 (Hepatitis C virus, UniProt A3EZJ3); assay: Inhibitory concentration against hepatitis C virus (HCV) NS3 protease; design: species or system Hepacivirus hominis
Sequence (A3EZJ3 whole entry): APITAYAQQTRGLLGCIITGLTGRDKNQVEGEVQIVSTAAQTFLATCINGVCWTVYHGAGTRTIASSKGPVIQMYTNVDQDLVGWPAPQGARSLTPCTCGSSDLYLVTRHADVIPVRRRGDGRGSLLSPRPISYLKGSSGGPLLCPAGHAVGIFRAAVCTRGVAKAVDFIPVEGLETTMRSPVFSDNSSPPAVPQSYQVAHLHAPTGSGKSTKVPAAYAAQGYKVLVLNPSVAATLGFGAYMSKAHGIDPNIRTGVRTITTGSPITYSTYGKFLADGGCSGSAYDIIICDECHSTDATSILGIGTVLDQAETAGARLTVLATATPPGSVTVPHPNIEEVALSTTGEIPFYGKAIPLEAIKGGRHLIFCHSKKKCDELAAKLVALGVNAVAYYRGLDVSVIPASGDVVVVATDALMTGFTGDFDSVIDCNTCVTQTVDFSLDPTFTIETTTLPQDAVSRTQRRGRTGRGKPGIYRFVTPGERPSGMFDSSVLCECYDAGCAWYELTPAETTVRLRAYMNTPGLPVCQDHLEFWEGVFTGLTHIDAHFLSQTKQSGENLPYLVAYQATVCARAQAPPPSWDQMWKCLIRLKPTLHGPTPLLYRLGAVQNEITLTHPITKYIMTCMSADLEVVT
pIC50: −log10 of the molar value.
readout_type: pIC50

COc1ccc2c(O[C@@H]3C[C@@H](C(=O)NC(CC(F)F)C(=O)NCCc4ccc(C(=O)O)cc4)N(C(=O)[C@@H](O)C(C)C)C3)cc(-c3ccccc3)nc2c1 (stereo partly specified)
4.96
COc1ccc2c(O[C@@H]3CC(C(=O)NC(CC(F)F)C(=O)O)N(C(=O)[C@@H](NC(=O)OC(C)(C)C)C(C)(C)C)C3)cc(-c3ccccc3)nc2c1 (stereo partly specified)
6.74
COc1ccc2c(O[C@@H]3C[C@@H](C(=O)NC(CC(F)F)C(=O)NCCc4c(F)cc(C(=O)O)cc4F)N(C(C)=O)C3)cc(-c3ccccc3)nc2c1 (stereo partly specified)
4.42

A = C=CC1C[C@]1(NC(=O)C1C[C@@H](Oc2cc(-c3ccccc3)nc3cc(OC)ccc23)CN1C(=O)[C@@H](NC(=O)OC(C)(C)C)C(C)(C)C)C(=O)O (stereo partly specified)
B = COc1ccc2c(O[C@@H]3C[C@@H](C(=O)NC(CC(F)F)C(=O)NCCc4ccc(C(=O)O)cc4)N(C(=O)[C@@H](NC(=O)OCC(C)C)C(C)C)C3)cc(-c3ccccc3)nc2c1 (stereo partly specified)
C = COc1ccc2c(O[C@@H]3C[C@@H](C(=O)NC(CC(F)F)C(=O)NCCc4c(F)cc(C(=O)O)cc4F)N(C(=O)[C@@H](NC(=O)OC(C)(C)C)C(C)(C)C)C3)cc(-c3ccccc3)nc2c1 (stereo partly specified)
*Q* Order by pIC50, ascending. Give your ranking as a list of the labels in the requested order.
*A* B, C, A
(B: 6.40, C: 7.27, A: 7.60)
